Collected from the literature: IC50 of various molecules toward ASK1 (Homo sapiens (Human), UniProt Q99683).

Worked cases, answers included:
C[C@H](CO)n1nnnc1-c1cccc(NC(=O)c2cc3c(cc2F)CCN(C(=O)N2CCC2)C3)n1 : 1.25 to 10 nM
CNC(=O)c1ccc2c(c1)CN(c1cccc(-c3nncn3C3CC3)n1)C2=O : < 200 nM
Cc1cccc(-c2ccc(C(=O)Nc3cccc(-c4nncn4C(C)C)n3)[nH]2)c1 : 5.8 nM
CC(C)n1nnnc1-c1cccc(NC(=O)c2cc3c(cn2)CCN(C(=O)N2CCCC2)C3)n1 : 1 to 10 nM
Cc1cnc(C(=O)Nc2cccc(-c3nnnn3C(C)C)n2)cc1-c1ccccn1 : 10 to 100 nM

Query: Need IC50 of "CC(C)Oc1cnc(C(=O)Nc2cccc3c2OC[C@@H](C)n2nnnc2-3)cc1-n1cnc(C2CC2)c1" , thanks.
Response: 4.1 nM

Query: Okay, and "COc1cc2c(cc1C(=O)Nc1cccc(-c3nncn3C(C)C)n1)C(=O)N(C(C)C)C2" ?
Response: 10 to 100 nM

Query: Okay, and "CC(C)n1nnnc1-c1cccc(NC(=O)c2cc3c(cc2F)CN(C(C)(C)C)S3(=O)=O)n1" ?
Response: 100 to 1000 nM

* * *

Collected from the literature: IC50 of various molecules toward UniProt:Q99683.

Worked cases, answers included:
O=C(c1ccc2c(c1)CN(c1cccc(-c3nncn3C3CC3)n1)C2=O)N1CCOCC1 : < 200 nM
CCn1nccc1-c1ccc2cnc(C(=O)Nc3cccc(-c4nncn4C(C)C)n3)cc2c1 : 10 to 100 nM
CCOC(C)n1cc(-c2ccc3c(c2)C(=O)N(c2cccc(-c4nncn4C(C)C)n2)CO3)cn1 (centres unmarked) : 29.2 nM
Cc1cnc(C(=O)Nc2cccc(-c3nnnn3C(C)C)n2)cc1-c1cnn(C(C)C)c1 : 1 to 10 nM
Cc1cc(F)c(C(=O)Nc2cccc(-c3nncn3C(C)C)n2)cc1C1CC1NS(=O)(=O)N(C)C (centres unmarked) : > 10 nM
CC(C)n1cnnc1-c1cccc(NC(=O)c2cc3sc(NC4CC4)nc3cc2F)n1 : 1 to 10 nM
COc1cc2c(cc1C(=O)Nc1cccc(-c3nnnn3[C@H](C)CO)n1)CN(C(=O)c1cnn(C3CC3)c1)CC2 : < 1.25 nM
Cc1c[nH]c(C(=O)Nc2cccc(-c3nncn3C(C)C)n2)c1 : 9.9 nM

Query: Need IC50 of "O=C1c2scc(-c3ccccc3)c2CN1c1cccc(-c2nncn2C2CC2)n1" , thanks.
Response: 200 to 1000 nM

Query: Okay, and "CC(C)Oc1nc2cc(F)c(C(=O)Nc3cccc(-c4nnnn4C(C)C)n3)cc2nc1OC(C)C" ?
Response: > 1000 nM

Query: Okay, and "COCCS(=O)(=O)N1CCc2cc(F)c(C(=O)Nc3cccc(-c4nnnn4C(C)C)n3)cc2C1" ?
Response: 10 to 100 nM

Query: Okay, and "COc1cc2c(cc1C(=O)Nc1cccc(-c3nnnn3[C@H](C)CO)n1)S(=O)(=O)N(C)C2" ?
Response: < 1.5 nM

Query: Okay, and "Cc1ccncc1-c1ccc2c(c1)C(=O)N(c1cccc(-n3nnnc3C(C)C)n1)C2" ?
Response: 100 to 1000 nM

Query: Okay, and "C[C@H](CO)n1nnnc1-c1cccc(NC(=O)c2cc3c(cn2)CCN(C(=O)N2CCC2)C3)n1" ?
Response: 1 to 10 nM
